# System: 786-0 renal
# PROTOCOL NOTES: NCI tumour cell line growth inhibition, 48 h
Consider the following compounds and their measured TGI readings.

# COMPOUND, VALUE OPERATOR, TGI [µM]
data = [
    ("COc1cc(C2CC(C)(N3CCCC3)Oc3cc4c(cc32)OCO4)cc(OC)c1OC (centres undefined)", "=", 17),
    ("C=C(C)C(=O)OC1C[C@H](COC(C)=O)C2CC=C(C)C2C2OC(=O)C(=C)[C@H]12 (some centres undefined)", "=", 7.26),
    ("O=C(CCl)Nc1ccc2c(Nc3cc(O)ccc3Cl)ncnc2c1", "=", 4.56),
    ("COc1c(C)c(OC)c2c(c1O)[C@@H]1[C@@H]3Cc4c(OC)c(C)c(OC)c(O)c4[C@H](CNC(=O)c4ccc5ccccc5n4)N3[C@@H](C#N)[C@H](C2)N1C", "=", 0.00791),
    ("CSC1C=C(C(C)C)CCC1(C)SC (centres undefined)", "=", 31.7),
    ("C[Si](C)(C)CC(N)=O", ">", 100),
    ("Cc1ccc(N=Nc2c(O)c(S(=O)(=O)O)cc3cc(S(=O)(=O)O)ccc23)c(C)c1", ">", 100),
    ("O=C(CC1(O)C(=O)N(Cc2ccccc2)c2ccc(Br)cc21)c1ccc(C(=O)NCC2CCC3(CC2)OOC2(CCCCC2)OO3)cc1 (centres undefined)", "=", 0.334),
    ("O=S(=O)(Cc1nc2ccccc2s1)c1nc2ccccc2s1", "=", 34.1),
    ("CCOC(=O)c1cnc2oc(-c3ccc(OC)cc3)nn2c1=O", ">", 100),
    ("COC(=O)c1ccc([C@H]2c3[nH]c4ccccc4c3C[C@H](C(=O)OC)N2C(=O)CCl)cc1", "<", 0.0169),
    ("Clc1ccc(Cl)c(N=Nc2cc3c4c(c2)CCCN4CCC3)c1", ">", 10),
    ("Cn1cccc(C(=O)c2ccccc2)c1=O", ">", 100),
    ("COC(O)C(=O)c1c2c(cc3c1CCC3)CCCC2 (centres undefined)", "=", 27.8),
    ("COc1ccc(NC(=O)c2sc3nc(C)c(C(=O)/C=C/c4ccccc4)cc3c2N)cc1", "=", 1.67),
    ("COC1CC(OC)C2OC(c3ccccc3)OCC2O1 (centres undefined)", ">", 100),
    ("Cn1ccnc1C(=O)/C=C/c1ccc(C(=O)Nc2ccccc2F)cc1", "=", 3.32),
    ("C[C@]12CC[C@@H]3c4ccc(OS(N)(=O)=O)cc4CC[C@H]3[C@@H]1CCC2=O", ">", 100),
    ("CCOC(=O)[C@@]12C(C)=CC(=O)O[C@]1(C)C[C@H]2C#N", ">", 100),
    ("O=C(c1c(Cl)cc(Cl)cc1Cl)N(Cc1cccnc1)C(=S)N(Cc1cccnc1)C(=O)c1c(Cl)cc(Cl)cc1Cl", "=", 10.5),
    ("Cc1c(CN)c(C)c(CN)c(C)c1CN", ">", 100),
    ("CCCCCC/C=C\\CCCCCCCCCc1cc(O)cc(OC)c1O", "=", 1.57),
    ("C/C1=C/C2OC(=O)C3(C)C2C(CC2(C)OC1=CC2=O)OC3(O)C(C)C (centres undefined)", ">", 69.3),
    ("O=[N+]([O-])[O][Sn]([O][Sn]([O][N+](=O)[O-])([c]1ccccc1)[c]1ccccc1)([c]1ccccc1)[c]1ccccc1", ">", 100),
]
